Answer each item with its documented ED50.
ASSAY METHOD TEXT: In vivo anti-histaminic protection from 48/80 induced lethality in rats 2 hour after oral administration.
Type: functional
TEST PARAMETERS: Rattus norvegicus

The compound `CCCCN1CCC(Nc2nc3ccccc3n2Cc2ccccc2)CC1` showed ED50 equal to > 2.5 mg/kg

The compound `c1ccc(Cn2c(NC3CCN(C4CCCCC4)CC3)nc3ccccc32)cc1` showed ED50 equal to > 2.5 mg/kg

The compound O=c1[nH]c2ccccc2n1CCCN1CCN(C(c2ccccc2)c2ccccc2)CC1 [OXATOMIDE] showed ED50 equal to 5.37 mg/kg

The compound `CN1CCC(Nc2nc3ccccc3n2Cc2ccccc2)CC1` showed ED50 equal to > 2.5 mg/kg

====

System: Cavia porcellus
ASSAY METHOD TEXT: Protection against intravenous histamine lithality in Guinea pigs 48 hour after oral administration
Format: functional
TEST PARAMETERS: read-out: PD50
RESULT TYPE: ED50

The compound `c1ccc(CCN2CCC(Nc3nc4ccccc4n3Cc3ccccc3)CC2)cc1` showed ED50 equal to 0.25 mg/kg

The compound `c1ccc(CCN2CCC(Nc3nc4ccccc4n3Cc3ccccn3)CC2)cc1` showed ED50 equal to > 0.16 mg/kg

The compound `Fc1ccc(Cn2c(NC3CCN(CCc4ccccc4)CC3)nc3ccccc32)cc1` showed ED50 equal to 0.12 mg/kg

The compound `c1ccc(CCCN2CCC(Nc3nc4ccccc4n3Cc3ccccc3)CC2)cc1` showed ED50 equal to > 0.6 mg/kg

The compound `Oc1nc2ccccc2n1CCCN1CCC(Nc2nc3ccccc3n2Cc2ccccc2)CC1` showed ED50 equal to > 0.6 mg/kg

The compound CN1CCC(=C2c3ccccc3CCc3cccnc32)CC1 [AZATADINE] showed ED50 equal to > 2.5 mg/kg

The compound OC(COc1ccccc1)CN1CCC(Nc2nc3ccccc3n2Cc2ccccc2)CC1 (stereo not drawn) showed ED50 equal to > 0.6 mg/kg

The compound `COc1ccc(CCN2CCC(Nc3nc4ccccc4n3Cc3ccccc3)CC2)cc1` showed ED50 equal to 0.16 mg/kg

====

ASSAY METHOD TEXT: In vivo anti-histaminic protection from 48/80 induced lethality in rats 2 hours after oral administration
Format: functional
TEST PARAMETERS: Rattus norvegicus
RESULT TYPE: ED50

The compound CN(C)CCC(c1ccc(Cl)cc1)c1ccccn1 (configuration not stated) [CHLORPHENIRAMINE] showed ED50 equal to 37.4 mg/kg

The compound `Fc1ccc(Cn2c(NC3CCN(CCc4ccccc4)CC3)nc3ccccc32)cc1` showed ED50 equal to 0.63 mg/kg

The compound `Fc1ccccc1Cn1c(NC2CCN(CCc3ccccc3)CC2)nc2ccccc21` showed ED50 equal to 2.5 mg/kg

The compound `CCn1nnn(CCN2CCC(Nc3nc4ccccc4n3Cc3ccccc3)CC2)c1=O` showed ED50 equal to > 2.5 mg/kg

The compound `c1ccc(Cn2c(NC3CCN(CCCOc4ccccc4)CC3)nc3ccccc32)cc1` showed ED50 equal to 0.63 mg/kg

The compound `COc1ccccc1CCN1CCC(Nc2nc3ccccc3n2Cc2ccccc2)CC1` showed ED50 equal to 1.25 mg/kg

The compound `Oc1nc2ccccc2n1CCN1CCC(Nc2nc3ccccc3n2Cc2ccccc2)CC1` showed ED50 equal to 2.5 mg/kg

The compound `c1ccc(CCN2CCC(Nc3nc4ccccc4n3Cc3ccccc3)CC2)cc1` showed ED50 equal to 3.5 mg/kg

The compound `C(=C\c1ccccc1)/CN1CCC(Nc2nc3ccccc3n2Cc2ccccc2)CC1` showed ED50 equal to > 2.5 mg/kg

The compound CN1CCC(=C2c3ccccc3CCc3cccnc32)CC1 [AZATADINE] showed ED50 equal to 0.48 mg/kg

The compound `c1ccc(CCN2CCC(Nc3nc4ccccc4n3Cc3ccccn3)CC2)cc1` showed ED50 equal to 2.5 mg/kg

The compound `Fc1ccc(CCN2CCC(Nc3nc4ccccc4n3Cc3ccccc3)CC2)cc1` showed ED50 equal to > 2.5 mg/kg

The compound `COc1ccc(CCN2CCC(Nc3nc4ccccc4n3Cc3ccccc3)CC2)cc1` showed ED50 equal to 0.63 mg/kg

The compound `CN(c1nc2ccccc2n1Cc1ccc(F)cc1)C1CCN(CCc2ccccc2)CC1` showed ED50 equal to 1.25 mg/kg

The compound `COc1cccc(CCN2CCC(Nc3nc4ccccc4n3Cc3ccccc3)CC2)c1` showed ED50 equal to 0.31 mg/kg

The compound `CCn1c(N(C)C2CCN(CCc3ccccc3)CC2)nc2ccccc21` showed ED50 equal to > 2.5 mg/kg

The compound CC(c1ccc(F)cc1)n1c(NC2CCN(CCc3ccccc3)CC2)nc2ccccc21 (configuration not stated) showed ED50 equal to > 2.5 mg/kg

The compound `COc1ccc(CCN2CCC(Nc3nc4ccccc4n3Cc3ccccc3)CC2)cc1OC` showed ED50 equal to > 2.5 mg/kg

The compound CN(C)CCOC(c1ccccc1)c1ccccc1 [DIPHENHYDRAMINE] showed ED50 equal to 37.4 mg/kg

The compound `CCOc1ccc(CCN2CCC(Nc3nc4ccccc4n3Cc3ccccc3)CC2)cc1` showed ED50 equal to 0.63 mg/kg

The compound OC(COc1ccccc1)CN1CCC(Nc2nc3ccccc3n2Cc2ccccc2)CC1 (configuration not stated) showed ED50 equal to 0.63 mg/kg

The compound `COc1cc(CCN2CCC(Nc3nc4ccccc4n3Cc3ccccc3)CC2)cc(OC)c1OC` showed ED50 equal to 1.25 mg/kg

The compound CC(c1ccccc1)N1CCC(Nc2nc3ccccc3n2Cc2ccccc2)CC1 (configuration not stated) showed ED50 equal to > 2.5 mg/kg

The compound `C=CCN1CCC(Nc2nc3ccccc3n2Cc2ccccc2)CC1` showed ED50 equal to 0.63 mg/kg

The compound `Oc1nc2ccccc2n1CCCN1CCC(Nc2nc3ccccc3n2Cc2ccccc2)CC1` showed ED50 equal to 2.5 mg/kg

The compound `Cc1cccc(CCN2CCC(Nc3nc4ccccc4n3Cc3ccccc3)CC2)c1` showed ED50 equal to 2.5 mg/kg

The compound `Cc1ccc(Cn2c(NC3CCN(CCc4ccccc4)CC3)nc3ccccc32)cc1` showed ED50 equal to 2.5 mg/kg
